Tested on: ovariectomized rats
Design: species or system Sprague Dawley rats
recorded-conditions: rat, in vivo, po, 0.1 mg/kg
Protocol: Seventy-five day old female Sprague Dawley rats (weight range of 200 to 225g) were obtained from Charles River Laboratories (Portage, MI). […] After a one week acclimation period (therefore, two weeks post-OVX) daily dosing with test compound was initiated. […] The animals were then sacrificed by asphyxiation with CO2, the uterus was removed through a midline incision, and a wet uterine weight was determined. […]
Where a name gives a salt, the structure may show the parent alone.
Catalogue of molecules with associated Uterine EPO (V. max)

Here's what some known entries look like.
INSERT INTO measurements (molecule, target_or_test_system, experimental_endpoint, assay_value) VALUES
  ('Oc1ccc(-c2sc3cc(O)ccc3c2Sc2ccc(OCCN3CCCCC3)cc2)cc1 [Example 53]', 'ovariectomized rats', 'Uterine EPO (V. max)', 0.9),
  ('CCN(CC)CCCOc1ccc(Oc2c(-c3ccc(O)cc3)sc3cc(O)ccc23)cc1 [Example 25, hydrochloride]', 'ovariectomized rats', 'Uterine EPO (V. max)', 3.3),
  ('Oc1ccc(-c2sc3cc(O)ccc3c2Oc2ccc(OCCN3CCOCC3)cc2)cc1 [Example 24, hydrochloride]', 'ovariectomized rats', 'Uterine EPO (V. max)', 0.9);

Switching to the query record.
Data request: Tell me Uterine EPO (V. max) of Oc1ccc(-c2sc3cc(O)ccc3c2Oc2ccc(OCCCN3CCCCC3)cc2)cc1 [Example 27, hydrochloride] when tested on ovariectomized rats.
Data returned: 4.8

* * *

Tested on: ovariectomized rats
Design: species or system Sprague Dawley rats
recorded-conditions: rat, in vivo, po, 1 mg/kg
Where a name gives a salt, the structure may show the parent alone.
experimental-endpoint: Uterine EPO (V. max)
Reply: number alone, nothing else.

Answered examples (3):
INSERT INTO measurements (molecule, target_or_test_system, assay_value) VALUES
  ('O=C(Oc1ccc(-c2sc3cc(OC(=O)c4ccccc4)ccc3c2Oc2ccc(OCCN3CCCCC3)cc2)cc1)c1ccccc1 [Example 43, hydrochloride]', 'ovariectomized rats', 6.0),
  ('CC(C)N(CCOc1ccc(Oc2c(-c3ccc(O)cc3)sc3cc(O)ccc23)cc1)C(C)C [Example 26, hydrochloride]', 'ovariectomized rats', 175.1),
  ('Oc1ccc(-c2sc3ccccc3c2Oc2ccc(OCCN3CCCC3)cc2)cc1', 'ovariectomized rats', 5.4);

Data request: # return recorded Uterine EPO (V. max) for input CCS(=O)(=O)Oc1ccc(-c2sc3cc(OS(=O)(=O)CC)ccc3c2Oc2ccc(OCCN3CCCCC3)cc2)cc1 [Example 44, hydrochloride]
Data returned: 94.5

Data request: For the molecule CCN(CC)CCOc1ccc(Oc2c(-c3ccc(O)cc3)sc3ccccc23)cc1 , give its measured Uterine EPO (V. max) value.
Data returned: 54.6

Data request: Hello, please tell me recorded Uterine EPO (V. max) for this one: Oc1ccc(-c2sc3cc(O)ccc3c2Oc2ccc(OCCN3CCCCC3)cc2)cc1
Data returned: 3.6

Data request: Determine its reported Uterine EPO (V. max): CCN(CC)CCOc1ccc(Oc2c(-c3ccc(O)cc3)sc3cc(O)ccc23)cc1
Data returned: 150.6
